- methodSummary: Human HepG2 cell viability assay in 384 well format
- Assay type: toxicity, cell-based
- Parameters: dose 125 nL, time 70.5 hour; concentration not given beside the values
- cond: HepG2 cells, read-out: Inhibition
// reported cytotoxicity at 70.5 h for each item listed
API: value field is a number in %; no unit string.

In the examples that follow, each entry is paired with its recorded cytotoxicity at 70.5 h.
>  <compound>
Cc1nc2c(c(N3CCC4(CCCNC4=O)C3)n1)CCC2 (configuration not stated)

>  <cytotoxicity at 70.5 h [%]>
-4.16

$$$$
>  <compound>
CC1CCCN(c2ccccc2OCC(=O)NC2CC2)C1 (configuration not stated)

>  <cytotoxicity at 70.5 h [%]>
2.91

$$$$
>  <compound>
Cc1nc(CN2CCOCC3(CCN(c4ncccn4)C3)C2)cs1 (configuration not stated)

>  <cytotoxicity at 70.5 h [%]>
-3.76

$$$$
>  <compound>
CCCc1nc(C(C)(C)NC(=O)C2CC(=O)N(C3CC3)C2)no1 (configuration not stated)

>  <cytotoxicity at 70.5 h [%]>
-6.42

$$$$
>  <compound>
CN1CCN(Cc2ccc(F)cc2)Cc2cccnc21

>  <cytotoxicity at 70.5 h [%]>
-7.2

$$$$

# context switch: different compound, same cytotoxicity at 70.5 h
Task: Find the measured cytotoxicity at 70.5 h of CC(C)(C)c1coc([C@@H]2COCCN2Cc2ccccn2)n1 and report it.
Output: 2.91
